Dose reference
Species on record: Mus musculus
Test: Dose required for 100%, 31 day survival of Plasmodium berghei inoculated mice (Mus musculus).
Type: ADME, organism-based
Details: in vivo, 744 h

{"mol.smiles": "CC(C)NC(=N)NC(=N)NOCCCOc1ccc(Cl)c(Cl)c1", "unit.name": "mg/kg", "Dose": 33}
{"mol.smiles": "CC(C)/N=C(N)/N=C(\\N)NOCCCSc1ccc(F)cc1.Cl", "unit.name": "mg/kg", "Dose": 183}
{"mol.smiles": "CC(C)/N=C(N)/N=C(\\N)NOCc1ccc(Cl)c(Cl)c1", "unit.name": "mg/kg", "Dose": 32}
{"mol.smiles": "N=C(NOCCCOc1cc(Cl)c(Cl)cc1Cl)NC(=N)NC1CCCCC1", "unit.name": "mg/kg", "Dose": 470}
{"mol.smiles": "CC(C)/N=C(N)/N=C(\\N)NOCCCOc1ccc(F)c(F)c1.Cl", "unit.name": "mg/kg", "Dose": 77}
{"mol.smiles": "CC(C)/N=C(N)/N=C(\\N)NOCCCOc1ccc(F)cc1", "unit.name": "mg/kg", "Dose": 90}
{"mol.smiles": "Cc1ccc(OCCCON/C(N)=N/C(N)=N/C(C)C)c(C)c1.Cl", "unit.name": "mg/kg", "Dose": 235}
{"mol.smiles": "CC(C)/N=C(N)/N=C(\\N)NOCCCOc1cc(F)cc(F)c1F.Cl", "unit.name": "mg/kg", "Dose": 180}
{"mol.smiles": "CC(C)/N=C(N)/N=C(\\N)NOCCCOc1cc(F)c(F)cc1F.Cl", "unit.name": "mg/kg", "Dose": 128}
{"mol.smiles": "CC(C)/N=C(N)/N=C(\\N)NOCCCOc1cccc2ccccc12.Cl", "unit.name": "mg/kg", "Dose": 495}
{"mol.smiles": "CC(C)/N=C(N)/N=C(\\N)NOCCCOc1ccc(C(C)(C)C)cc1.Cl", "unit.name": "mg/kg", "Dose": 1480}
{"mol.smiles": "CC(C)/N=C(N)/N=C(\\N)NOCCCOc1ccc(Br)cc1", "unit.name": "mg/kg", "Dose": 135}
{"mol.smiles": "CC(C)/N=C(N)/N=C(\\N)NOCCCOc1ccccc1.Cl", "unit.name": "mg/kg", "Dose": 540}
{"mol.smiles": "Cc1ccc(OCCCON/C(N)=N/C(N)=N/C(C)C)cc1.Cl", "unit.name": "mg/kg", "Dose": 445}
{"mol.smiles": "Cc1ccc(SCCCON/C(N)=N/C(N)=N/C(C)C)cc1.Cl", "unit.name": "mg/kg", "Dose": 265}
{"mol.smiles": "CC(C)/N=C(N)/N=C(\\N)NOCCCSc1ccc(Cl)cc1", "unit.name": "mg/kg", "Dose": 182}
{"mol.smiles": "CC(C)NC(=N)NC(=N)NOCCCOc1cc(Cl)c(Cl)cc1Cl", "unit.name": "mg/kg", "Dose": 76}
{"mol.smiles": "CCc1ccc(OCCCO/N=C(N)/N=C(\\N)NC(C)C)cc1.Cl", "unit.name": "mg/kg", "Dose": 505}
{"mol.smiles": "CC(C)NC(=N)NC(=N)NOCCCOc1ccc(Cl)cc1", "unit.name": "mg/kg", "Dose": 79}
{"mol.smiles": "CC(C)/N=C(N)/N=C(\\N)NOCCCOc1cccc(C(F)(F)F)c1.Cl", "unit.name": "mg/kg", "Dose": 140}
{"mol.smiles": "CC(C)/N=C(N)/N=C(\\N)NOCCCOc1ccc(Cl)cc1Cl", "unit.name": "mg/kg", "Dose": 64}

* * *

System: Plasmodium falciparum
Test: In vitro antimalarial activity against Plasmodium falciparum K1
Format: functional
Flag rule - IC90 less than 2 ng/mL flags 1.0; the remaining entries get 0.0.

{"compound": "CC1(C)N=C(N)N=C(N)N1OCCCOc1ccc(Cl)cc1", "answer.label": 1.0}
{"compound": "CC1(C)N=C(N)N=C(N)N1OCCCOc1ccc(Br)cc1.Cl", "answer.label": 1.0}
{"compound": "CC1(C)N=C(N)N=C(N)N1OCCc1cccc(C(F)(F)F)c1.Cl", "answer.label": 0.0}
{"compound": "CC1(C)N=C(N)N=C(N)N1c1ccc(Cl)cc1", "answer.label": 0.0}
{"compound": "Cc1cc(OCCCON2C(N)=NC(N)=NC2(C)C)ccc1C(C)C.Cl", "answer.label": 0.0}
{"compound": "CC1(C)N=C(N)N=C(N)N1OCCCOc1cc(F)c(F)cc1F.Cl", "answer.label": 1.0}
{"compound": "CC1(C)N=C(N)N=C(N)N1OCCCOc1cc(Cl)c(Cl)cc1Cl", "answer.label": 1.0}
{"compound": "CC1(C)N=C(N)N=C(N)N1OCCCSc1cc(Cl)ccc1Cl", "answer.label": 0.0}
{"compound": "CC1(C)N=C(N)N=C(N)N1OCCCSc1ccc(F)cc1.Cl", "answer.label": 1.0}
{"compound": "CC1(C)N=C(N)N=C(N)N1OCCCOc1ccc2ccccc2c1.Cl", "answer.label": 1.0}
{"compound": "CC1(C)N=C(N)N=C(N)N1OCCCOc1cccc(C(F)(F)F)c1.Cl", "answer.label": 0.0}
{"compound": "Cc1cccc(OCCCON2C(N)=NC(N)=NC2(C)C)c1.Cl", "answer.label": 1.0}
{"compound": "COc1ccc(OCCCON2C(N)=NC(N)=NC2(C)C)cc1.Cl", "answer.label": 1.0}
{"compound": "CC1(C)NC(N)=NC(=N)N1OCCCOc1ccc(Cl)cc1Cl", "answer.label": 1.0}
{"compound": "CC1(C)N=C(N)N=C(N)N1OCCCSc1ccc(Cl)cc1", "answer.label": 0.0}
{"compound": "CC1(C)N=C(N)N=C(N)N1OCCCOc1cc(F)cc(F)c1F.Cl", "answer.label": 1.0}
{"compound": "CC1(C)N=C(N)N=C(N)N1OCCCOc1ccc(F)c(F)c1.Cl", "answer.label": 1.0}
{"compound": "CCCCCCCCCC1N=C(N)N=C(N)N1OCCCOc1cc(Cl)c(Cl)cc1Cl (stereo not given)", "answer.label": 0.0}
{"compound": "CC1(C)N=C(N)N=C(N)N1OCCOc1cc(Cl)c(Cl)cc1Cl", "answer.label": 0.0}
{"compound": "COc1cc(OCCCON2C(N)=NC(N)=NC2(C)C)cc(OC)c1OC.Cl", "answer.label": 1.0}
{"compound": "CCc1nc(N)nc(N)c1-c1ccc(Cl)cc1", "answer.label": 0.0}
{"compound": "CC1(C)N=C(N)N=C(N)N1OCCCOc1ccc(F)cc1F.Cl", "answer.label": 1.0}
{"compound": "CC1(C)N=C(N)N=C(N)N1OCCCOc1ccc([N+](=O)[O-])cc1.Cl", "answer.label": 1.0}
{"compound": "N=C1N=C(N)NC2(CCCCC2)N1OCCCOc1cc(Cl)c(Cl)cc1Cl", "answer.label": 0.0}
{"compound": "CC1(C)N=C(N)N=C(N)N1OCCCOc1ccc(F)cc1.Cl", "answer.label": 1.0}

* * *

Assay: In vivo antimalarial activity against Plasmodium berghei in mice (Mus musculus) after 6 days
Type: functional
Details: 144 h
Reported ED90 by item:
value.kind: ED90 (mg/kg)

{"mol.smiles": "CC(C)/N=C(N)/N=C(\\N)NOCCCOc1ccc(F)cc1F.Cl", "relation.qualifier": ">", "observed.measurement": 128}
{"mol.smiles": "Cc1cc(OCCCON/C(N)=N/C(N)=N/C(C)C)ccc1C(C)C.Cl", "relation.qualifier": "<", "observed.measurement": 128}
{"mol.smiles": "CC(C)/N=C(N)/N=C(\\N)NOCc1ccc(Cl)c(Cl)c1", "relation.qualifier": "<", "observed.measurement": 8}
{"mol.smiles": "CC(C)/N=C(N)/N=C(\\N)NOCCCSc1ccc(Cl)cc1", "relation.qualifier": "=", "observed.measurement": 73}
{"mol.smiles": "CC(C)NC(=N)NC(=N)NOCCCOc1ccc(Cl)c(Cl)c1", "relation.qualifier": "<", "observed.measurement": 16}
{"mol.smiles": "N=C(NOCCCOc1cc(Cl)c(Cl)cc1Cl)NC(=N)NC1CCCCC1", "relation.qualifier": ">", "observed.measurement": 256}
{"mol.smiles": "CCc1ccc(OCCCO/N=C(N)/N=C(\\N)NC(C)C)cc1.Cl", "relation.qualifier": "=", "observed.measurement": 96}
{"mol.smiles": "CC(C)/N=C(N)/N=C(\\N)NOCCCOc1ccc(F)cc1", "relation.qualifier": "<", "observed.measurement": 16}
{"mol.smiles": "Cc1ccc(OCCCON/C(N)=N/C(N)=N/C(C)C)cc1C.Cl", "relation.qualifier": ">", "observed.measurement": 128}
{"mol.smiles": "CC(C)/N=C(N)/N=C(\\N)NOCCCOc1ccc(Br)cc1", "relation.qualifier": "<", "observed.measurement": 32}
{"mol.smiles": "Cc1cccc(OCCCON/C(N)=N/C(N)=N/C(C)C)c1.Cl", "relation.qualifier": ">", "observed.measurement": 128}
{"mol.smiles": "Cc1ccc(OCCCON/C(N)=N/C(N)=N/C(C)C)cc1.Cl", "relation.qualifier": "=", "observed.measurement": 113}
{"mol.smiles": "CC(C)/N=C(N)/N=C(\\N)NOCCCOc1cc(F)c(F)cc1F.Cl", "relation.qualifier": "=", "observed.measurement": 18}
{"mol.smiles": "Cc1ccc(OCCCON/C(N)=N/C(N)=N/C(C)C)c(C)c1.Cl", "relation.qualifier": "=", "observed.measurement": 120}
{"mol.smiles": "CC(C)/N=C(N)/N=C(\\N)NOCCCOc1cccc(C(F)(F)F)c1.Cl", "relation.qualifier": "=", "observed.measurement": 27}
{"mol.smiles": "CC(C)NC(=N)NC(=N)NOCCCOc1cc(Cl)c(Cl)cc1Cl", "relation.qualifier": "<", "observed.measurement": 16}
{"mol.smiles": "CC(C)/N=C(N)/N=C(\\N)NOCCCOc1cc(F)cc(F)c1F.Cl", "relation.qualifier": "=", "observed.measurement": 74}
{"mol.smiles": "CC(C)/N=C(N)/N=C(\\N)NOCCCSc1ccc(F)cc1.Cl", "relation.qualifier": "=", "observed.measurement": 70}
